These data points were gathered from patent US20260240740A1.

Run description: Photostability after UV irradiation, absorbance spectra
Format: physicochemical
Recorded conditions: Ethanol, 1 mM, 1 h
Measurement type: Absorbance peak, Irradiation 2000 J/dm2 (nm)

>>> print(df.to_string())
                                   compound                         measurement_type  readout_unit  data_value
0  CCN(CC)c1ccc(C(=O)c2ccccc2C(=O)NCCCCCCCCOC(=O)C(C#N)=C(c2ccccc2)c2ccccc2)c(O)c1  Absorbance peak, Irradiation 2000 J/dm2            nm         357
1  CCCCC(CC)COC(=O)C(C#N)=C(c1ccccc1)c1ccccc1 (stereo not shown) [OCR, reference compound]  Absorbance peak, Irradiation 2000 J/dm2            nm         304
2  CCCCCCOC(=O)c1ccccc1C(=O)c1ccc(N(CC)CC)cc1O [DHHB, reference compound]  Absorbance peak, Irradiation 2000 J/dm2            nm         357
3  CCN(CC)c1ccc(C(=O)c2ccccc2C(=O)NCCCCCCOC(=O)C(C#N)=C(c2ccccc2)c2ccccc2)c(O)c1  Absorbance peak, Irradiation 2000 J/dm2            nm         357

###

Run description: Photostability after UV irradiation, absorbance spectra
Type: physicochemical
Recorded conditions: Ethanol, 1 mM
Measurement type: Absorbance peak, Without UV irradiation (nm)

In [3]: df
Out[3]:
                                   compound  data_value
0  CCN(CC)c1ccc(C(=O)c2ccccc2C(=O)NCCCCCCCCOC(=O)C(C#N)=C(c2ccccc2)c2ccccc2)c(O)c1         357
1  CCCCC(CC)COC(=O)C(C#N)=C(c1ccccc1)c1ccccc1 (stereo not shown) [OCR, reference compound]         304
2  CCCCCCOC(=O)c1ccccc1C(=O)c1ccc(N(CC)CC)cc1O [DHHB, reference compound]         357
3  CCN(CC)c1ccc(C(=O)c2ccccc2C(=O)NCCCCCCOC(=O)C(C#N)=C(c2ccccc2)c2ccccc2)c(O)c1         358

###

Run description: Photostability after UV irradiation, absorbance spectra
Assay type: physicochemical
Recorded conditions: Ethanol, 1 mM, 2 h
Measurement type: Absorbance peak, Irradiation 4000 J/dm2 (nm)

>>> df
                                   compound  data_value
0  CCCCC(CC)COC(=O)C(C#N)=C(c1ccccc1)c1ccccc1 (stereo not shown) [OCR, reference compound]         304
1  CCCCCCOC(=O)c1ccccc1C(=O)c1ccc(N(CC)CC)cc1O [DHHB, reference compound]         357
2  CCN(CC)c1ccc(C(=O)c2ccccc2C(=O)NCCCCCCOC(=O)C(C#N)=C(c2ccccc2)c2ccccc2)c(O)c1 [Compound #4]         357
3  CCN(CC)c1ccc(C(=O)c2ccccc2C(=O)NCCCCCCCCOC(=O)C(C#N)=C(c2ccccc2)c2ccccc2)c(O)c1 [Compound #2]         357
